Target: Fatty-acid amide hydrolase 1 (Rattus norvegicus, UniProt P97612)
Sequence (P97612 whole entry): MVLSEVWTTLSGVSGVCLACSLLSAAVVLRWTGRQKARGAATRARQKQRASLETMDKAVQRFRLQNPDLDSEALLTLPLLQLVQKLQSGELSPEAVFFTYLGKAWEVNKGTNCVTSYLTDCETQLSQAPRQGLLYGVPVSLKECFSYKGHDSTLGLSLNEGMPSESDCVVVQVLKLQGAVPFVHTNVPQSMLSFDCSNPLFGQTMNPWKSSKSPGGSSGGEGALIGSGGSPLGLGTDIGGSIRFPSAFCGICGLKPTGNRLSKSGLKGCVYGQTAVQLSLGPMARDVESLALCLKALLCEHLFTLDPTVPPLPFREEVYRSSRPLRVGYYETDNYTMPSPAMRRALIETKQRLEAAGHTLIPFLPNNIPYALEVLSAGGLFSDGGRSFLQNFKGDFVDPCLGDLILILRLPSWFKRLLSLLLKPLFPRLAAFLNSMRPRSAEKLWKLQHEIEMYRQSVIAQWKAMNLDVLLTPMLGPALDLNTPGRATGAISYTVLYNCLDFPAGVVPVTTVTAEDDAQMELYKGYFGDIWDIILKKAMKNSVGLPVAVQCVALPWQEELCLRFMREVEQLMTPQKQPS
pKi: −log10 of the molar value.
# pKi against Fatty-acid amide hydrolase 1 (Rattus norvegicus, UniProt P97612), merged from multiple literature sources
Quick rule for you: pKi at 7 or higher means Fulfilled, lower means Not fulfilled.

These solved cases illustrate the format of a correct answer.
{"compound": "CCCCCCCCCCCC(=O)c1nc2ncccc2o1", "tested-target": "Fatty-acid amide hydrolase 1 (Rattus norvegicus, UniProt P97612)", "label": "Fulfilled"}
{"compound": "[O-][S+](CCCCCCc1ccccc1)c1ncc(-c2cocn2)o1 (stereo not drawn)", "tested-target": "Fatty-acid amide hydrolase 1 (Rattus norvegicus, UniProt P97612)", "label": "Not fulfilled"}
{"compound": "[O-][S+](CCCCCc1ccccc1)c1nc2ccccc2o1 (stereo not drawn)", "tested-target": "Fatty-acid amide hydrolase 1 (Rattus norvegicus, UniProt P97612)", "label": "Not fulfilled"}
{"compound": "O=C(CCCCCc1ccccc1)C(F)(F)F", "tested-target": "Fatty-acid amide hydrolase 1 (Rattus norvegicus, UniProt P97612)", "label": "Not fulfilled"}
{"compound": "CCCCC(=O)c1nc2ncccc2o1", "tested-target": "Fatty-acid amide hydrolase 1 (Rattus norvegicus, UniProt P97612)", "label": "Fulfilled"}
{"compound": "O=C(CCCCc1ccccc1)c1nc2ncccc2o1", "tested-target": "Fatty-acid amide hydrolase 1 (Rattus norvegicus, UniProt P97612)", "label": "Fulfilled"}

Quick check: does CCCCCC(=O)C(F)(F)F have pKi greater than or equal to 7?
Not fulfilled

Entry CCCCCCC(=O)C(F)(F)F : is its pKi no less than 7?
Not fulfilled

Is pKi at least 7? Consider CCCCOC[C@H]1CC=CC[C@H]1COCCCC(=O)C(F)(F)F
Not fulfilled

Given the entry CCCCCCc1ccccc1CCCCCC(=O)C(F)(F)F , answer whether its pKi meets or surpasses 7.
Not fulfilled
